Below: a set of entries, each annotated with reported z-score.
Assay: budding yeast growth changes without added modifier – OD600, strain BY4716, 24 h, basal condition, primary screen (AID 1173)
Conditions: S. cerevisiae BY4716 growth, OD600, 24 h; higher = more signal, called active from +8 up or from −8 down

compound	z-score
CCCCCCc1nc(-c2ccc(-c3ccc(Cl)c(Cl)c3)o2)cc2c1[Si](C(C)C)(C(C)C)OC2	-7.31
NC(=O)N1C(=O)C2C(C1=O)C1C=C(CCCO)C2C(c2ccc(CN3CCCC3)cc2)N1Cc1cc2c(cc1Br)OCO2 (stereo not drawn)	-0.222
CCCCCC1=C2CNC(Cc3ccccc3)(C(=O)OC)C=C2C(C)C1=O (stereo not drawn)	1.36
COc1ccc([Si](C)(C)[C@@H]2[C@@H](CC(=O)N3Cc4ccccc4C[C@H]3CO)O[C@]3(C(=O)N(Cc4cccc(N5CCOC5=O)c4)c4ccccc43)[C@H]2C)cc1	-0.238
CC(C)C(=C=CC[C@H](O)c1ccccc1OCCO)C[C@H](O)c1cc(Cl)cc(Cl)c1O	-5.59
CC1CC/C=C\[C@H]2OC34C=CCN(CCN5CCOCC5)C(=O)[C@H]3N(CCCO)C(=O)[C@@H]4C2C(=O)O1 (stereo partly drawn)	0.356
CC(C)N1C(=O)c2ccccc2[C@](C)(C(=O)NCC(F)(F)F)[C@@H]1c1ccc(CO)cc1	-1.3
Cc1ccc(S[C@]2(C(=O)NCC(F)(F)F)CC(=O)N(Cc3ccccc3C(F)(F)F)[C@@H]2c2ccc(CO)cc2)cc1	0.0386
O=C1C2C=CC(C(O)C3CCCCC3)N(n3cnnc3)C2C(=O)N1Cc1ccccc1 (stereo not drawn)	0.161
Cc1ccc(S[C@]2(C(=O)NCc3ccccc3)CC(=O)N(Cc3ccccc3C(F)(F)F)[C@@H]2c2ccc(CO)cc2)cc1	-0.359
N#Cc1ccc(NN2C(C(O)C3CC=CCC3)C=CC3C(=O)N(c4ccccc4)C(=O)C32)cc1 (stereo not drawn)	0.0837
O=C1[C@H]2C=C(I)[C@H](C[C@@H]2c2ccccc2)[C@@]12CO2	-11.5
C#CCN1[C@@H](Cc2ccccc2)C(=O)O[C@H](Cc2ccccc2)[C@@H]1/C=C/C1CC1	-0.236
CCOC(=O)C1=C[C@@H](C(C)(C)C)N(S(=O)(=O)c2ccc(C)cc2)[C@H]1c1ccc(C#N)cc1	2.25
CC(C)(C)N1CC=CC23O[C@@H]4/C=C\CCCOC(=O)C4[C@H]2C(=O)N(CCCCCO)[C@@H]3C1=O (stereo partly drawn)	0.309
COc1ccc([Si](C)(C)[C@@H]2[C@@H](CC(=O)N(CCO)Cc3ccccc3)O[C@]3(C(=O)N(Cc4ccc(I)cc4)c4ccccc43)[C@H]2C)cc1	-0.498
COC(=O)C(CC#Cc1ccc2c(c1)[C@]1(C(=O)N2)[C@H](c2ccccc2OCCO)N2[C@H](c3ccccc3)[C@H](c3ccccc3)OC(=O)[C@H]2[C@@H]1C(=O)N1CCc2cc(OC)c(OC)cc2C1)C(=O)OC	1.07
CN1C(=O)C2C(C1=O)C1C=C(c3ccc(CO)cc3)C2C(C2CC2)N1C (stereo not drawn)	0.385

----------
Assay: S6 kinase pathway phospho-S6 level changes – cell-based, A549, cytoblot, luminescence, serum-stimulated, primary screen (AID 1158);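 note: serum-stimulated A549 lung adenocarcinoma cells; signal is phosphorylated S6 detected by cytoblot immunostaining with HRP secondary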
Conditions: 5 h, higher = more signal
Assign class by z-score: not lower than -0.09 means condition met; lower than -0.09 means condition not met.

compound	label
[N-]=[N+]=NCc1ccccc1[C@@H]1OC(c2ccc(OCCCO)cc2)=N[C@]1(Cc1ccccc1N=[N+]=[N-])C(=O)O	condition met
CCCC=C(CCC)[C@@H](NC(=O)OCC(C)C)c1ccc(C(=O)OC)cc1	condition met
C=CCC(OC(C)=O)[C@@H]1[C@@H](N(Cc2ccc(-c3cccc(C(F)(F)F)c3)o2)C(=O)c2ccc(-c3ccccc3)cc2)c2cc(OCCCO)ccc2N1C(=O)c1ccc2ccccc2c1 (some centres not stated)	condition met
COC(=O)C(CC#Cc1ccc2c(c1)[C@]1(C(=O)N2)[C@H](c2ccc(OCCO)cc2)N2[C@H](c3ccccc3)[C@H](c3ccccc3)OC(=O)[C@H]2[C@@H]1C(=O)N1CCCCCCC1)C(=O)OC	condition not met
CN(C)C(=O)[C@]1(Cc2ccccc2)N=C(c2ccc(OCCCO)cc2)O[C@@H]1c1ccccc1CN=[N+]=[N-]	condition met
CN(C)CCCNC(=O)[C@@H]1c2ccccc2C(=O)N(Cc2ccccc2C(F)(F)F)[C@H]1c1ccc(CO)cc1	condition not met
